Where do these numbers come from? They come from paper PMC5540273.

System: LZK
Construct: gene MAP3K13
Details: concentration: 1 μM, replicates: in singlicate; n = 1;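 note: KINOMEscan kinase panel screen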
readout-kind: %Inh (%)
Dear colleague, please return just the value in %, with no unit written.

• Clc1ccc(-c2nn3ncccc3c2-c2ccnc(Nc3ccc4c(c3)OCCO4)n2)cc1 = 0
• c1ccc(-c2cnc3nccnn23)cc1 = 0
• Cl.c1ccc(-c2ccc3c(Nc4ccc5[nH]ccc5c4)ccnc3c2)nc1 = 39
• CCS(=O)(=O)c1ccc(OC)c(Nc2nccc(-c3c(-c4cccc(NC(=O)c5c(F)cccc5F)c4)nn4ncccc34)n2)c1 = 0
• Cl.Cl.NCC(C(=O)Nc1cc(Br)c(-c2ccnc3[nH]ccc23)s1)c1ccccc1 (stereo not drawn) = 0

Now look at this entry.
Answer with reported %Inh of CCc1ccc(-c2ccc3c(c2)-c2c(cnn2C)S(=O)(=O)N3C)cc1
14

###

Test system: CDK5
Details: concentration: 1 μM, replicates: in singlicate; n = 1
readout-kind: %Inh (%)
Dear colleague, please return just the value in %, with no unit written.

Here are 8 molecules together with their reported answers.
• FC(F)(F)c1ccc(/C=C/c2cncnc2Nc2ccc3[nH]c(Cc4ccccc4)nc3c2)cc1 = 0
• c1ccc(Oc2ccc(Nc3ccnc4cc(-c5ccc(CNCCN6CCOCC6)o5)ccc34)cc2)nc1 = 0
• COc1cc(Nc2nccc(N3CCC(NC(=O)Nc4cccc(C(C)=O)c4)C3)n2)cc(OC)c1OC (centres unmarked) = 0
• O=C(Nc1cccc(-c2nn3ncccc3c2-c2ccnc(Nc3ccccc3)n2)c1)c1c(F)cccc1F = 0
• COc1cccc(C(=O)Nc2cccc(Oc3ccc4nc(NC(=O)C5CC5)cn4n3)c2)c1 = 0
• COc1cc2c(cc1OCCN1CCNCC1)ncc1c3ccc(C#N)cc3[nH]c21 = 3
• Cl.Cl.NCC(NCc1ccc(-c2ccnc3[nH]ccc23)s1)c1ccccc1 (centres unmarked) = 0
• Nc1ncc(-c2cccnc2)c2scc(-c3ccc4c(c3)CCN4C(=O)Cc3ccccc3)c12 = 9

Answer with reported %Inh of Nc1ncc(-c2ccc3nccc(-c4ccncc4)c3c2)cc1S(=O)(=O)N1CCOCC1
0

Answer with reported %Inh of COc1ccc(CNC(=O)NC2CCN(c3ccnc(Nc4ccc(F)cc4)n3)CC2)cc1
0

Answer with reported %Inh of O=C(Nc1cccc(-c2nn3ccccc3c2-c2ccnc(Nc3cccc(C(F)(F)F)c3)n2)c1)c1c(F)cccc1F
0

###

%Inh reference
Test system: YANK3
Construct: gene STK32C
Details: concentration: 1 μM, replicates: in singlicate; n = 1
Returns: string containing the number followed by the unit.

* c1ccc(-c2n[nH]cc2Nc2ccnc3ccccc23)nc1 | 0%

Answer with reported %Inh of Cc1ccc(C)c(NC(=O)NC2CCN(c3ccnc(Nc4ccc(F)cc4)n3)C2)c1 (centres unmarked)
28%

Answer with reported %Inh of COc1ccc(Nc2nccc(NCCNC(=O)c3cc4ccccc4s3)n2)cc1
0%

Answer with reported %Inh of COC(=O)Nc1nc2cc(Oc3ccc(NC(=O)Nc4cc(C(F)(F)F)ccc4F)cn3)ccc2[nH]1.Cl.Cl
0%

Answer with reported %Inh of O=c1[nH]cc(-c2ccc(N3CCOCC3)cc2)c2sc(-c3cn[nH]c3)cc12
16%

Answer with reported %Inh of Nc1ncnc2c1nc(-c1ccccc1)n2-c1ccccc1
0%

Answer with reported %Inh of Cc1occc1-c1ncc(OC[C@@H](N)Cc2c[nH]c3ccccc23)cc1-c1ccc2[nH]nc(C)c2c1.O=C(O)C(F)(F)F
94.5%

Answer with reported %Inh of NCCCC(NC(=O)c1cc(Br)c(-c2ccnc3[nH]ccc23)s1)c1ccccc1.O=C(O)C(F)(F)F.O=C(O)C(F)(F)F (centres unmarked)
0%

###

%Inh reference
Tested on: LATS1
Conditions: concentration: 1 μM, replicates: in singlicate; n = 1
Dear colleague, please return just the value in %, with no unit written.

Here are 5 molecules together with their reported answers.
- CCS(=O)(=O)c1ccc(OC)c(Nc2nccc(-c3c(-c4cccc(NC(=O)c5c(F)cccc5F)c4)nn4ncccc34)n2)c1: 0
- COc1cc(Nc2nccc(N3CCC(NC(=O)Nc4cccc(C(C)=O)c4)C3)n2)cc(OC)c1OC (stereo not shown): 0
- CCCCc1nn2ncccc2c1-c1ccnc(Nc2ccc(N3CCN(C)CC3)cc2)n1: 0
- COc1cc(Nc2nccc(N3CCC(NC(=O)c4cc5ccccc5s4)C3)n2)cc(OC)c1OC (stereo not shown): 57
- COc1ccc(-c2coc3ccc(-c4nnc(SCc5ccc(OC)c(C(F)(F)F)c5)o4)cc23)cc1: 25

Answer with reported %Inh of Cl.Cl.NCC(C(=O)Nc1cc(Br)c(-c2ccnc3[nH]ccc23)s1)c1ccccc1 (stereo not shown)
62

Answer with reported %Inh of CC(=O)N1CCN(c2ccc(Nc3nccc(-c4sc(C(C)C)nc4-c4cccc(NS(=O)(=O)c5cccc(Cl)c5)c4)n3)cn2)CC1
0

###

System: RSK4(Kin.Dom.2-C-terminal)
Construct: gene RPS6KA6
Conditions: concentration: 1 μM, replicates: in singlicate; n = 1
%Inh reference
Returns: string containing the number followed by the unit.

Here are 6 molecules together with their reported answers.
* Cl.Cl.NCC(NCc1ccc(-c2ccnc3[nH]ccc23)s1)c1ccccc1 (stereo not shown) [GSK1321565] | 26%
* c1ccc(-c2cnc3nccnn23)cc1 [AH20685] | 0%
* C[C@@H]1CC[C@@H](C(=O)Nc2ccccc2)CN1c1cc(-c2ccc3c(N)n[nH]c3c2)nc(N)n1 [GSK2286062] | 17%
* Cl.Cl.NCC(NC(=O)c1cc(-c2ccccc2)c(-c2ccnc3[nH]ccc23)s1)c1ccccc1 (stereo not shown) [GSK1321561] | 0%
* C[C@@H](Oc1cc(-n2cnc3cc(-c4ccnc(NCCS(C)(=O)=O)c4)ccc32)sc1C(N)=O)c1ccccc1Cl [GSK907232] | 14%
* Cl.Cl.NCC(C(=O)Nc1cc(Br)c(-c2ccnc3[nH]ccc23)s1)c1ccccc1 (stereo not shown) [GSK1269851] | 2%

Answer with reported %Inh of O=C(Nc1n[nH]c2nc(-c3ccc(O)cc3)ccc12)C1CC1 [SB-710363]
0%

###

%Inh reference
Test system: EPHA4
Settings: concentration: 1 μM, replicates: in singlicate; n = 1

Here are 5 compounds together with their reported answers.
* Cl.Cl.NCC(NC(=O)c1cc(-c2ccccc2)c(-c2ccnc3[nH]ccc23)s1)c1ccccc1 (stereo not shown) [GSK1321561] | 2%
* Cc1ccc(F)c(C(=O)Nc2cccc(-c3nn4ccccc4c3-c3ccnc(Nc4cccc(F)c4)n3)c2)c1F [GSK361061] | 20%
* CCc1ccc(-c2ccc3c(c2)-c2c(cnn2C)S(=O)(=O)N3C)cc1 | 1%
* COC(=O)Nc1nc2ccc(Oc3ccc(NC(=O)Nc4cc(C(F)(F)F)ccc4F)cc3)cc2n1C.Cl [GW692089] | 65%
* O=C(Nc1n[nH]c2cc(-c3ccoc3)ccc12)C1CC1 [SB-738481] | 5%

Now look at this entry.
Answer with reported %Inh of COC(=O)Nc1nc2cc(Oc3ccc(NC(=O)Nc4cc(C(F)(F)F)ccc4F)cn3)ccc2[nH]1.Cl.Cl [GW681170]
81%

###

Test system: PIK3C2G
Conditions: concentration: 1 μM, replicates: in singlicate; n = 1
%Inh reference
Dear colleague, please return just the value in %, with no unit written.

Here are 2 compounds together with their reported answers.
* CN(c1ccc(NC(=O)Nc2cc(C(F)(F)F)ccc2F)cc1)c1ccnc(Nc2ccc(S(N)(=O)=O)cc2)n1 [GW809893] | 39
* COC(=O)Nc1nc2ccc(Oc3ccc(NC(=O)Nc4cc(C(F)(F)F)ccc4F)cc3)cc2n1C.Cl [GW692089] | 4

Answer with reported %Inh of COc1ccc(CNC(=O)NC2CCN(c3ccnc(Nc4ccc(F)cc4)n3)CC2)cc1 [GSK1379788]
0

Answer with reported %Inh of Nc1ncc(-c2ccc3nccc(-c4ccncc4)c3c2)cc1S(=O)(=O)N1CCOCC1 [GSK1627798]
99.1

Answer with reported %Inh of Cc1occc1-c1ncc(OC[C@@H](N)Cc2c[nH]c3ccccc23)cc1-c1ccc2[nH]nc(C)c2c1.O=C(O)C(F)(F)F [GSK682037]
0

Answer with reported %Inh of FC(F)(F)c1ccc(/C=C/c2cncnc2Nc2ccc3[nH]c(Cc4ccccc4)nc3c2)cc1 [GW709199]
0

Answer with reported %Inh of CSc1cccc2c(-c3ccncn3)c(-c3ccc(F)cc3)nn12 [GW514786]
0

###

System: ERK2
Construct: gene MAPK1
Details: concentration: 1 μM, replicates: in singlicate; n = 1
readout-kind: %Inh
Returns: string containing the number followed by the unit.

- C[C@@H](Oc1cc(-n2cnc3cc(-c4ccnc(NCCS(C)(=O)=O)c4)ccc32)sc1C(N)=O)c1ccccc1Cl: 0%
- Cn1cc(-c2[nH]c3cc(NC(=O)[C@H](N)C4CCCCC4)cc4c3c2C=NNC4=O)cn1: 22%

Now look at this entry.
Answer with reported %Inh of Cl.c1ccc(-c2ccc3c(Nc4ccc5[nH]ncc5c4)ccnc3c2)nc1
0%
